Where do these numbers come from? They come from paper PMC6383769.

# assayed_target: human D4 (Homo sapiens)
# protocol_notes: cell-based
measured_attribute: EC50 (µM)
Respond numerically; units are µM and should not be typed.

Could you share what EC50 was measured for `CC(C)N1C[C@H](C)[C@H](NC(=O)N2Cc3ccccc3[C@@H]2C)C1` , tested on human D4 (Homo sapiens)?
3.15

###

Parameter pKi: see the listing below.
# assayed_target: human D2 (D2 long receptor) (Homo sapiens, UniProt P14416)
# Sequence (P14416 whole entry): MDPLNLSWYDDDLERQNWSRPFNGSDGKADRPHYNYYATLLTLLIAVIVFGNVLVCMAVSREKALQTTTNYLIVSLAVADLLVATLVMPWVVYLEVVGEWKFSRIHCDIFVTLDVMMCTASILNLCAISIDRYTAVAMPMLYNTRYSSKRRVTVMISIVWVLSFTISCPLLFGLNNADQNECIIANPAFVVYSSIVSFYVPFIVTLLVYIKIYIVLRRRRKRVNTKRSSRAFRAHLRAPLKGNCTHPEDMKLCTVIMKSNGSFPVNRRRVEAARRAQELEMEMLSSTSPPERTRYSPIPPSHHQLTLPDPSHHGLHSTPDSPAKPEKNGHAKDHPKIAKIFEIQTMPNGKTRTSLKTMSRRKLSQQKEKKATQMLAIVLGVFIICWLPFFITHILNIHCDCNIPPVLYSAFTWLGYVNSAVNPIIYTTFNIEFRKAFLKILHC
# protocol_notes: biochemical
pKi: −log10 of the molar value.

Bench note: what pKi did O[C@]1(CNCc2cnn(-c3ccc(Br)cc3)c2)CCSC1 [ZINC176752603] show?
< 5.00

Bench note: what pKi did N#Cc1ccnc(SC[C@]2(O)CCN(Cc3ccccc3)C2)c1 [ZINC601953994] show?
< 5.00

###

# assayed_target: human D4 (D4.4 variant) (Homo sapiens)
# Sequence (P21917 1-419): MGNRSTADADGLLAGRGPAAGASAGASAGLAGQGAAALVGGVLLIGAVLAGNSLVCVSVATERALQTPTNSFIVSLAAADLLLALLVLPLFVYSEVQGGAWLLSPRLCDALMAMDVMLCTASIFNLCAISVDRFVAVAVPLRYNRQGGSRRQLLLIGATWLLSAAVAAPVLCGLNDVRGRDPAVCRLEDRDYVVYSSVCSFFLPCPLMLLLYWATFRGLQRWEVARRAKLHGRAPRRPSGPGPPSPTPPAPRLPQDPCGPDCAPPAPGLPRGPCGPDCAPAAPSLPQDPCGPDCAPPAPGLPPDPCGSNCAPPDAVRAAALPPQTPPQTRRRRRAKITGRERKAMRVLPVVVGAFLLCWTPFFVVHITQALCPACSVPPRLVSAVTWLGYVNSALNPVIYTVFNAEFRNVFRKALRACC
# protocol_notes: biochemical
measured_attribute: pKi
Hey, just a heads up that pKi is the negative log base 10 of the concentration in molar.

Examples from the recorded data:
In [3]: df
Out[3]:
                              record_smiles  measurement
0   C=C(C)COCCNC[C@H](O)Cc1ccc(C(F)(F)F)cc1         6.26
1  CCCC[C@H](CN)NC(=O)Nc1cnn(-c2ccc(C)cc2C)c1         6.00
2  C[C@H]1CN(C2CC2)C[C@H]1NC(=O)c1cc2cc(Br)ccc2o1         6.15

Bench note: what pKi did `Cc1ccc(CNCCCn2cccn2)cc1Br` show?
6.59

Bench note: what pKi did `C[C@H](CNC(=O)c1coc2ccc(Cl)cc12)N1CCCC1` show?
6.36

Bench note: what pKi did `C#CCOc1ccccc1CN1CC[C@@]2(C1)C(=O)Nc1ccccc12` show?
6.74

Bench note: what pKi did `N#Cc1ccnc(SC[C@]2(O)CCN(Cc3ccccc3)C2)c1` show?
6.01

Bench note: what pKi did `CCC[C@H](C)[C@H](CO)NCCc1nc(-c2ccc(Cl)cc2)no1` show?
6.07

###

# assayed_target: human D4 (D4.4 variant) (Homo sapiens, UniProt P21917)
# protocol_notes: cell-based
measured_attribute: pEC50
Hey, just a heads up that pEC50 is the negative log base 10 of the concentration in molar.

In [3]: df
Out[3]:
                                   compound  measurement
0  C[C@H](CNC(=O)c1coc2ccc(Cl)cc12)N1CCCC1 [ZINC651262870]         4.51
1  C[C@H]1CN(C2CC2)C[C@H]1NC(=O)c1cc2cc(Br)ccc2o1 [ZINC467716766]         4.46
2  C[C@H]1CN(C2CC2)C[C@H]1NC(=O)c1cc2cc([N+](=O)[O-])ccc2s1 [ZINC268141382]         5.00

Bench note: what pEC50 did CCC[C@H](C)[C@H](CO)NCCc1nc(-c2ccc(Cl)cc2)no1 [ZINC567992445] show?
5.32

Bench note: what pEC50 did Cc1ccc(CNCCCn2cccn2)cc1Br [ZINC127859549] show?
4.98
